assay: qHTS assay to identify small molecule antagonists of the constitutive androstane receptor (CAR) signaling pathway - cell viability counter screen (AID 1224837); details: HepG2-CYP2B6-hCAR viability, CellTiter-Fluor, 23 h, co-treated with 50 nM CITCO; series mostly up to 92.4 µM; note: nearly all actives have a fitted effect of over 45% in size
Inconclusive results are not listed. Calls of active or inactive are those of the source. Calls come from the whole dose curve; as a rule, active = well fitted cell-killing curve with a large enough effect in the repeat runs; inconclusive = weak or mixed curves, or effect the other way; inactive = flat fitted curve, though single readings scatter.
The reply should be one of these categories: Yes for active, No for inactive

smiles_notation=C=CCOC(=O)c1ccccc1N classification=No
smiles_notation=CCC[CH2][Sn]([CH2]CCC)([O]C(C)=O)[O]C(C)=O classification=Yes

INPUT: Could you check what this test reported for O=S(=O)(O)F ?
OUTPUT: No

The values you see were collected from PubChem BioAssay (Tox21).
